- SYSTEM NAME: Human immunodeficiency virus type 1 reverse transcriptase (Human immunodeficiency virus 1) (UniProt Q72547)
- ASSAY NOTES: Inhibition of HIV-1 reverse transcriptase using 5'-Cy5CAGGAAACAGCTATGAC/3'-GTCCTTTGTCGATACTGTTTTTTT-5' as primer/template at 10 mM preincubated for 20 min followed by dATP addition measured after 5 to 10 mins by gel electrophoresis analysis
- EXPERIMENTAL CONDITIONS: time 25-30 min
Calls of active or inactive are those of the source. The calls are words filed in the database; no cut-off is given here.
Possible outcomes: 1.0 (active), 0.0 (inactive)

- Nc1ncnc2c1ncn2CCN[C@@H](CO)C(=O)NP(=O)(O)O: 1.0
- Nc1ncnc2c1ncn2CCN[C@H](CP(=O)(O)O)C(=O)O: 0.0
- Nc1ncnc2c1ncn2CCOC(CP(=O)(O)O)C(=O)O (racemic): 1.0
- C[C@H](Cn1cnc2c(N)ncnc21)N(CCP(=O)(O)O)CC(=O)O: 1.0
- Nc1ncnc2c1ncn2CCCN[C@H](CP(=O)(O)O)C(=O)O: 1.0
- Nc1ncnc2c1ncn2CCCOC(CP(=O)(O)O)C(=O)O (configuration not stated): 1.0
- Nc1ncnc2c1ncn2CCN[C@@H](CP(=O)(O)O)C(=O)O: 0.0

====

- SYSTEM NAME: Human immunodeficiency virus type 1 reverse transcriptase (Human immunodeficiency virus 1) (UniProt Q72547)
- ASSAY NOTES: Inhibition of HIV-1 reverse transcriptase using 5'-Cy5CAGGAAACAGCTATGAC/3'-GTCCTTTGTCGATACTGTTTTTTT-5' as primer/template at 1 mM preincubated for 20 min followed by dATP addition measured after 5 to 10 mins by gel electrophoresis analysis
- EXPERIMENTAL CONDITIONS: time 25-30 min
Active and inactive are the calls of the source. The rule behind the calls is not given here.
MEASURED ENDPOINT: inhibition

• Nc1ncnc2c1ncn2CCOC(CP(=O)(O)O)C(=O)O (racemic) = inactive
• Nc1ncnc2c1ncn2CCN[C@@H](CO)C(=O)NP(=O)(O)O = inactive
• Nc1ncnc2c1ncn2CCN[C@H](CP(=O)(O)O)C(=O)O = inactive
• Nc1ncnc2c1ncn2CCCOC(CP(=O)(O)O)C(=O)O (configuration not stated) = inactive
• Nc1ncnc2c1ncn2CCN[C@@H](CP(=O)(O)O)C(=O)O = inactive
• Nc1ncnc2c1ncn2CCCN[C@H](CP(=O)(O)O)C(=O)O = inactive
• C[C@H](Cn1cnc2c(N)ncnc21)N(CCP(=O)(O)O)CC(=O)O = inactive
